- Tested System: Glyceraldehyde-3-phosphate dehydrogenase (GAPDH)
- Experimental Protocol: Inhibitory activity measured for Glyceraldehyde-3-phosphate dehydrogenase (GAPDH) in Leishmania. mexicana
Measured Parameter: IC50 (µM)

P = OC[C@H]1OC(n2cnc3c(N[C@@H]4CCCc5ccccc54)ncnc32)[C@H](O)[C@@H]1O (some centres undefined)
Q = Cc1cccc(CNc2ncnc3c2ncn3C2O[C@H](CO)[C@@H](O)[C@H]2O)c1 (some centres undefined)
R = Nc1ccc(CNc2ncnc3c2ncn3C2O[C@H](CO)[C@@H](O)[C@H]2O)cc1 (some centres undefined)
Lab note: IC50 ranking, ascending, for the listed compounds. Response field: labels, in requested order.
P, Q, R
